The reported numbers originate from BigSolDB 2.1.

Conditions: in water, 308.15 K
reported metric: solubility (mole fraction)
// no unit, no text: just the number

Previously resolved entries follow.
[
  {
    "structure smiles string": "COc1cnc(NS(=O)(=O)c2ccc(N)cc2)nc1",
    "solubility (mole fraction)": "9.26e-06"
  },
  {
    "structure smiles string": "COc1cc(NS(=O)(=O)c2ccc(N)cc2)nc(OC)n1",
    "solubility (mole fraction)": "4.78e-06"
  },
  {
    "structure smiles string": "COc1cc(NS(=O)(=O)c2ccc(N)cc2)ncn1",
    "solubility (mole fraction)": "6.13e-06"
  },
  {
    "structure smiles string": "Nc1ccc(S(=O)(=O)Nc2ncccn2)cc1",
    "solubility (mole fraction)": "8.23e-06"
  }
]

# input Could you share which solubility (mole fraction) value was measured for Nc1ccc(S(=O)(=O)[N-]c2cncc(Cl)n2)cc1.[Na+] ?
# output 1.59e-05
